// provenance: PubChem BioAssay (Tox21)

molecular target: Acetylcholinesterase (Homo sapiens) (UniProt P22303); assay: Acetylcholinesterase (AChE) small molecule antagonists: enzyme-based qHTS assay with human liver microsomes (AID 1347399); conditions: qHTS inhibition; series mostly up to 115 µM; further: nearly all actives have a fitted effect of over 60% in size
Sequence (P22303 whole entry, looked up): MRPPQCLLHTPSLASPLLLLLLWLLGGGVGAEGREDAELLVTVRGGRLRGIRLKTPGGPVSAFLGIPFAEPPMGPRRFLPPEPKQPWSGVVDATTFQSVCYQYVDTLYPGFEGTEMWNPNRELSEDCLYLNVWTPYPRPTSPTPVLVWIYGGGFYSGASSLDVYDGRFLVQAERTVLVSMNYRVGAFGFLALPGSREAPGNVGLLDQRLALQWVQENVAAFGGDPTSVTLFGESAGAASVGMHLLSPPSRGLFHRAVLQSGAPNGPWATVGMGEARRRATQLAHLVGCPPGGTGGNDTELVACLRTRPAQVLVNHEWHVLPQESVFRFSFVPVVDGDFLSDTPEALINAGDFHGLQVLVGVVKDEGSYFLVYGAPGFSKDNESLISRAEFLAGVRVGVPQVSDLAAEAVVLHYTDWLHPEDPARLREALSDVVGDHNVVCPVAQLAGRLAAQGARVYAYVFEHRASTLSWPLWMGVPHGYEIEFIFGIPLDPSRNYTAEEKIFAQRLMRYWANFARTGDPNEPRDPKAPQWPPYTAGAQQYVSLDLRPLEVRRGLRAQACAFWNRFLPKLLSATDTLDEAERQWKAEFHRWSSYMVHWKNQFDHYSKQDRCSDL
Active and inactive are the calls of the source. The call rests on the fitted dose curve.
Readout kind: outcome

Below: 5 compounds and their reported outcome.
Compound: COCCCOc1cc(C[C@@H](C[C@H](N)[C@@H](O)C[C@H](C(=O)NCC(C)(C)C(N)=O)C(C)C)C(C)C)ccc1OC
outcome: inactive
--
Compound: CCCCCCCC
outcome: inactive
--
Compound: COc1ccc(CCC(C)=O)cc1
outcome: inactive
--
Compound: CC(C)=CCC/C(C)=C/C(=O)O
outcome: inactive
--
Compound: C=C1[C@H]2CC[C@@H]3[C@H]2C(C)(C)CCC[C@]13C
outcome: inactive

Consider the compound shown here: CCN1CCCC1=O What is its recorded outcome?
inactive

Record: C=C(C)C(=O)OCCN(CC)CC
inactive

Next compound up: CCCCCCCCOc1ccccc1C(=O)Nc1ccc(C(=O)OCC[N+](C)(CC)CC)cc1
inactive

What about this compound? Cc1cc(C)c(/C=C2\C(=O)Nc3ccccc32)[nH]1
inactive

// query: CCc1nnc(NS(=O)(=O)c2ccc(N)cc2)s1
inactive

Another: CCCCOCCOC(=O)c1ccccc1C(=O)OCCOCCCC
inactive

// repeat for ONc1ccccc1 and report
inactive

Also need COc1cc(S(N)(=O)=O)cc(C(=O)O)c1OC , thanks.
inactive

Lookup Cc1cc(C(C)(C)C)c(O)c(C)c1Cn1c(=O)n(Cc2c(C)cc(C(C)(C)C)c(O)c2C)c(=O)n(Cc2c(C)cc(C(C)(C)C)c(O)c2C)c1=O
inactive

Also, CCCCCCCCCCCO please.
inactive

What do you get for O=C(c1ccccc1)C1(O)CCCCC1 ?
inactive

Further, for CCn1cc(C(=O)O)c(=O)c2cc(F)c(N3CCNCC3)nc21 ?
inactive

And CCO[Si](CCCN=C=O)(OCC)OCC ?
inactive

Consider next the compound C=C(C)C(=O)OCCCCCC in the same way.
inactive

Again, but for CCCCCCCCCCCCCCCC[N+](C)(C)Cc1ccccc1
inactive

# iterate: CC(C(=O)O)c1cccc(Oc2ccccc2)c1 (configuration not stated)
inactive

Now this one: CC(C)c1ccc(S(=O)(=O)O)cc1
inactive
